# Test system: MOLT-4 cells
# procedure-details: MOLT-4 cell viability, MTT assay
# Format: cell-based
# details: Homo sapiens, MOLT-4, 48 h, 48 h exposure
# Description: MTT colorimetric assay is based on the mitochondrial reduction of tetrazolium salt by living cells. The viable cell number is proportional to the production of formazan salts, which can be read spectrophotometrically at 540 nm. MOLT-4 and H146 cells were purchased from ATCC and cultivated in RPMI 1640 supplemented with 10% heat inactivated fetal bovine serum, penicillin (100 IU/ml), streptomycin (100 μg/ml) and L-glutamine (2 mM). […] IC50s were calculated using standard four-parametric curve fitting.
experimental-endpoint: pIC50
Friendly reminder that pIC50 comes from taking -log10 of the concentration in mol/L.

molecule | pIC50
CNCC#Cc1ccc(OCCCc2sc(N(CCC(O)CO)c3cc(C)c(Nc4nc5ccccc5s4)nn3)nc2C(=O)O)c(F)c1 (stereo not drawn) | 7.33
Cc1cc(N(C)c2nc(C(=O)O)c(C3CCN(c4ccccc4)CC3)s2)nnc1Nc1nc2ccccc2s1 | 5.95
Cc1cc(N(CCCS(=O)(=O)O)c2nc(C(=O)O)c(CCCOc3ccc(C#CCN(C)C)cc3F)s2)nnc1Nc1nc2ccccc2s1 | 5.88
Cc1cc(N(C)c2nc(C(=O)O)c(C3CCN(S(=O)(=O)Cc4ccccc4)CC3)s2)nnc1Nc1nc2ccccc2s1 | 5.30
CCN(CC)CCNCCCCCN(c1cc(C)c(Nc2nc3ccccc3s2)nn1)c1nc(C(=O)O)c(CCCOc2ccc(C#CCN(C)C)cc2F)s1 | 6.89
Cc1cc(N(CCCC(O)CN(C)CCN(C)C)c2nc(C(=O)O)c(CCCOc3ccc(C#CCN(C)C)cc3F)s2)nnc1Nc1nc2ccccc2s1 (stereo not drawn) | 7.72

Query: Param readout = pIC50; param system = MOLT-4 cells; param query = Cc1cc(N(CCCC(O)CN2CCNCC2)c2nc(C(=O)O)c(CCCOc3ccc(C#CCN(C)C)cc3F)s2)nnc1Nc1nc2ccccc2s1 (stereo not drawn) ; response: value
Response: 6.80

Query: Param readout = pIC50; param system = MOLT-4 cells; param query = Cc1cc(N(C)c2nc(C(=O)O)c(CCCOc3ccc(C#CC(C)N4CCOCC4)cc3F)s2)nnc1Nc1nc2ccccc2s1 (single isomer, unassigned) ; response: value
Response: 8.83

Query: Param readout = pIC50; param system = MOLT-4 cells; param query = `Cc1cc(N(C)c2nc(C(=O)O)c(CCCOC3CCCCC3)s2)nnc1Nc1nc2ccccc2s1` ; response: value
Response: 6.72

----------
# target-system: BCLXL (Homo sapiens, UniProt Q07817, V10N/V9A)
# Sequence (Q07817 with tags, fused parts or gaps V9A/V10N): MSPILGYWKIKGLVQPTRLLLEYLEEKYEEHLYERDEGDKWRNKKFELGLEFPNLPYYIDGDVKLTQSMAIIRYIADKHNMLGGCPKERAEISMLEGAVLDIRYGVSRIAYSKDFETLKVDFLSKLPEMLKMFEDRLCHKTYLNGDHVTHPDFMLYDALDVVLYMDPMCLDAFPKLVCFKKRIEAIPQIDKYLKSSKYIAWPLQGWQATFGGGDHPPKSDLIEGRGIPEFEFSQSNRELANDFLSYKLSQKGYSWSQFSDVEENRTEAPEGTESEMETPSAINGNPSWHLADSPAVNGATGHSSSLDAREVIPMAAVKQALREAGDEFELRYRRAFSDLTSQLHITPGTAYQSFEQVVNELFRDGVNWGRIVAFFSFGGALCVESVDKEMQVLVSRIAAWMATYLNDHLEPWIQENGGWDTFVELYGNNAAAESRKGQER
# procedure-details: Fluorescence polarisation assay (PUMA-based probe displacement); further: 20 nM protein, 10 nM fluorescent probe
Catalogue of molecules with associated log10(Ki)
Scale: decimal log of Ki, Ki in nM.

molecule | log10(Ki)
C=Cc1sc(N(C)c2cc(C)c(Nc3nc4ccccc4s3)nn2)nc1C(=O)O | 1.43
CCOCc1c(Nc2nc(C(=O)O)cs2)nnc(Nc2nc3ccccc3s2)c1C | 1.91
Cc1c(Nc2nc(C(=O)O)c(CCCOc3ccc(CCCN(C)C)cc3F)s2)nnc(Nc2nc3ccccc3s2)c1C | 0.46
CN(c1cc(C2CC2)c(Nc2nc3ccccc3s2)nn1)c1nc(C(=O)O)cs1 | 0.41

Query: GET /values?readout=log10(Ki)&item= COCC(O)CCN(c1cc(C)c(Nc2nc3ccccc3s2)nn1)c1nc(C(=O)O)cs1 (stereo not shown)
Response: 0.83
